Recorded LogP by entry
Experiment: Log P by HPLC on reversed phase columns (EEC directive 79/831 Annex V.A8; methods [a], [b], [c])
Format: physicochemical

Example cases with answers are listed next.
Input N#Cc1cncn1CC(O)(c1ccc(C(F)(F)F)cc1Br)C1(F)CC1 (stereo not drawn) . Output LogP: 2.78^[a]

Input OC(Cn1cncc1Cl)c1ccc(Oc2ccc(Cl)cc2)cc1Br (stereo not drawn) . Output LogP: 2.54^[a]

Input N#Cc1cncn1CC(O)c1ccc(Oc2ccc(Cl)cc2)cc1Br (stereo not drawn) . Output LogP: 3.21^[a]

Input N#Cc1cncn1CC(O)c1ccc(Oc2c(F)cc(Cl)cc2F)nc1C(F)(F)F (stereo not drawn) . Output LogP: 3.23^[a]

Input N#Cc1cncn1CC(O)(c1ccc(C(F)(F)F)cc1Cl)C1(Cl)CC1 (stereo not drawn) . Output LogP: 2.80^[a]

Input N#Cc1cncn1CC(O)(c1ccc(Br)cc1Cl)C1(Cl)CC1 (stereo not drawn) [I-648] . Output LogP: 2.70^[a]

***
Input N#Cc1cncn1CC(O)(c1ccc(Cl)cc1)C1(F)CC1 (stereo not drawn) . Output LogP: 2.27^[a]

Input CCCC#Cc1ccc(C(O)(Cn2cncc2C#N)C2(Cl)CC2)c(Cl)c1 (stereo not drawn) . Output LogP: 3.65^[a]

====

Recorded chromatographic logP by entry
Assay: Log P by HPLC on reversed phase columns (EEC directive 79/831 Annex V.A8; methods [a], [b], [c])
Assay type: physicochemical
Conditions: reversed phase HPLC column; method [a]: LC-UV, acidic range, 0.1% formic acid in water and acetonitrile as eluent (linear gradient from 10% to 95% acetonitrile)

Input N#Cc1cncn1CC(=O)c1cnc(Oc2ccc(Br)cc2)cc1C(F)F [IX-123] . Output chromatographic logP: 2.89

Input N#Cc1cncn1CC(=O)c1ccc(Oc2ccc(OC(F)(F)F)cc2)nc1C(F)(F)F [IX-129] . Output chromatographic logP: 3.32

Input N#Cc1cncn1CC(=O)c1ccc(Oc2ccc(I)cc2)cc1Cl [IX-68] . Output chromatographic logP: 3.71

Input O=C(Cn1cncc1Cl)c1ccc(Oc2ccc(Cl)nc2)cc1Cl [IX-44] . Output chromatographic logP: 2.2

Input O=C(Cn1cncc1F)c1ccc(Oc2ccc(Cl)cc2)cc1C(F)(F)F [IX-83] . Output chromatographic logP: 2.88

***
Input O=C(Cn1cncc1Cl)c1ccc(Oc2ccc(Cl)cc2)nc1C(F)(F)F [IX-52] . Output chromatographic logP: 3

Input N#Cc1cncn1CC(=O)c1cnc(Oc2ccc(Cl)nc2)cc1C(F)(F)F [IX-141] . Output chromatographic logP: 2.62

Input O=C(Cn1cncc1Br)c1ccc(Oc2ccc(Br)cc2)cc1C(F)(F)F [IX-40] . Output chromatographic logP: 3.46

====

Assay: Log P by HPLC on reversed phase columns (EEC directive 79/831 Annex V.A8; methods [a], [b], [c])
Type: physicochemical
Conditions: reversed phase HPLC column; method [a]: LC-UV, acidic range, 0.1% formic acid in water and acetonitrile as eluent (linear gradient from 10% to 95% acetonitrile)
Recorded chromatographic logP by entry
// print number alone

Input N#Cc1cncn1CC(=O)c1ccc(Oc2ccc(S(F)(F)(F)(F)F)cc2)nc1Cl . Output chromatographic logP: 3.42

Input CC(=O)c1cncn1CC(=O)c1ccc(Oc2ccc(Cl)cc2)nc1C(F)(F)F . Output chromatographic logP: 3.13

Input N#Cc1cncn1CC(=O)c1ccccc1Cl . Output chromatographic logP: 1.81

FYI, the data here is from patent US20200031778A1.
